target: UniProt Q9YGV3; test: Antagonist activity at aryl hydrocarbon receptor in 30 hrs post fertilized transgenic cyp1a:EGFP zebrafish embryo assessed as receptor transcriptional activity by measuring cyp1A-mediated EGFP expression at 5 uM measured after 48 hrs by fluorescence stereomicroscopic analysis
Sequence (Q9YGV3 whole entry): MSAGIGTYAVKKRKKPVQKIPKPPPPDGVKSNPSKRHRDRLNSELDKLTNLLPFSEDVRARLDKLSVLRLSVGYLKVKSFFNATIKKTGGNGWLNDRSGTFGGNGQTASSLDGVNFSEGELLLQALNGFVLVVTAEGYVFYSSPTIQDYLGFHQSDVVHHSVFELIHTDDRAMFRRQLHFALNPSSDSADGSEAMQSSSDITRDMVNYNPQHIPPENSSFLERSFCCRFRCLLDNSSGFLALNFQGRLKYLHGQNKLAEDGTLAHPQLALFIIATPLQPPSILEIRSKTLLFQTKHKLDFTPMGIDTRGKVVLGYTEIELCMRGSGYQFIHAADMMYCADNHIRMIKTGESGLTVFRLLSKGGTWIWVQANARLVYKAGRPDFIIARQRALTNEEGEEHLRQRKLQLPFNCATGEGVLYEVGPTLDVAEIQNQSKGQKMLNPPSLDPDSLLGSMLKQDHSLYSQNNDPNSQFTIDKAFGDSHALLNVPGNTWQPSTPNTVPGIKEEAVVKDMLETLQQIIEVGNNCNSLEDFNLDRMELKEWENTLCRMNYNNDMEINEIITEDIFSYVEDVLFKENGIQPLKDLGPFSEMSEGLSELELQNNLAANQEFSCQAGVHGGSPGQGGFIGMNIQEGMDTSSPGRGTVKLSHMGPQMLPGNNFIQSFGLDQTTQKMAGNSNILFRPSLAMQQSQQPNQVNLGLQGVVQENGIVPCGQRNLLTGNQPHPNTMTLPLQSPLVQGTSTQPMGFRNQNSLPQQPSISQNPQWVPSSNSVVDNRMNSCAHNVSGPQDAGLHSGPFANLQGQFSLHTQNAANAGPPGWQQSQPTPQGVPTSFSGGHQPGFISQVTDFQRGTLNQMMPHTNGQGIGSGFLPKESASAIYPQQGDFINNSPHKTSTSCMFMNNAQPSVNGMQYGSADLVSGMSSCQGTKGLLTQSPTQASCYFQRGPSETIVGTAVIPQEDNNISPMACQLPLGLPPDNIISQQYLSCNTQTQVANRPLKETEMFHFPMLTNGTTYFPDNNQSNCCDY
readout_type: Activity

* COc1ccccc1-c1cc(-c2ccc(OC(F)(F)F)cc2)no1 | Not Active
* COc1ccccc1C(=O)CC(=O)c1ccccc1 | Not Active
* COc1ccc(C(=O)CC(=O)c2ccccc2OC)cc1 | Not Active
* COc1ccccc1-c1cc(-c2ccc(OC(C)C)cc2)ncn1 | Active
* O=C(CC(=O)c1ccc(OC(F)(F)F)cc1)c1ccccc1 | Not Active
* COc1ccccc1C(=O)CC(=O)c1cccc(OC(F)(F)F)c1 | Active
* COc1ccccc1C(=O)CC(=O)c1ccc(OCc2ccccc2)cc1 | Not Active
* CC(C)Oc1ccc(C(=O)CC(=O)c2ccccc2OC(F)(F)F)cc1 | Not Active
* COc1ccccc1C(=O)/C=C/c1ccc(OC(F)(F)F)cc1 | Not Active
* CCOc1ccc(C(=O)CC(=O)c2ccccc2OC)cc1 | Active
* COc1ccccc1C(=O)CC(=O)c1ccc(OCC(C)C)cc1 | Not Active
* COc1cccc(C(=O)CC(=O)c2ccc(OC(F)(F)F)cc2)c1 | Active
* COc1ccccc1-c1cc(-c2ccc(OC(F)(F)F)cc2)[nH]n1 | Not Active
* COc1ccccc1-c1cc(-c2ccc(OC(C)C)cc2)no1 | Active
* COc1ccccc1C(=O)C(C)(C)C(=O)c1ccc(OC(C)C)cc1 | Not Active
* COc1ccccc1-c1cc(-c2ccc(OC(C)C)cc2)[nH]n1 | Not Active
* COc1cccc(OC)c1C(=O)CC(=O)c1ccc(OC(C)C)cc1 | Not Active
* COc1cc(O)c(C(=O)CC(=O)c2ccc(OC(C)C)cc2)c(OC)c1 | Not Active
* COc1ccc(C(=O)CC(=O)c2ccc(OC(F)(F)F)cc2)cc1 | Not Active
